System: bovine tubulin
test.description: In vitro tubulin polymerization assay (turbidity at 340 nm)
Assay type: biochemical
run.parameters: 10 μM compound, 30 minute data point, vs 1% DMSO control
Protocol: Briefly, tubulin polymerization is a kinetic process that is temperature-dependent and requires GTP and was performed as follows. Soluble tubulin dimers polymerize into microtubules upon warming, and polymerization in vitro correlates with an increase in turbidity (measured at 340 nm). […] The absorbance at 340 nm was determined at one minute intervals for 30 minutes. […]
Provide the reported Tubulin Assay: percent inhibition at 10 μM based on 30 minute data of each item.
Numbers only, in %.

Answered examples (3):
test.smiles	value.unit	quantitative.result
COc1cccc(-c2nnc(-c3cccnc3NCc3cccnc3)[nH]2)c1	%	61
COc1ccc(Nc2nnc(-c3cccnc3Nc3cc(OC)cc(OC)c3)[nH]2)cc1	%	72
N#Cc1ccc(S(=O)(=O)Nc2ccccc2-c2nnc(Nc3ccc4c(c3)OCCO4)[nH]2)cc1	%	42

Exercise: Entry under review: COc1cccc(Nc2nnc(-c3cccnc3Nc3ccc4c(c3)OCO4)[nH]2)c1 . Reported Tubulin Assay: percent inhibition at 10 μM based on 30 minute data?
Solution: 47
